system: MS2 coat protein; assay: apparent KD of MS2 coat protein, switch ON state; designed switch direction (-1 OFF switch, 1 ON switch): -1; higher = weaker reporter binding; details: FMN input: 0 or 200 uM; Eterna round: R93 (includes R88 designs)
Quick reference for apparent KD of MS2 coat protein among some sequences
Endpoint: apparent KD of MS2 coat protein (nM)

1. AAAGCUGAAGGAUAUACUUGGAAAAAAAAAAAAAAAAAAAAACAUGAGGAUCACCCAUGUAGAAGGUCAGAUAA [Mat - Mod] :: 41.1
2. GCAAAGUGAGGAUAUACGCGAACAAUAAAAAUAAAGAAAGCGUAGAAGGCACAUGAGGAUCACCCAUGUCCAGC [Mat - Exaclusion 4 - Eli mod - D78] :: 23.5
3. AAAAAACAUGAGGAUCACCCAUGUGAGGAUAUGACUUAAAUAAAGAAAGAAGAAAUAGUCAGAAGGCACAAAUA [Mat - Mod of Nando] :: 28.6
4. AAAAAACAUGAGGAUCACCCAUGUGAGGAUAUCGUGCAGAAAAAAAAAAAAAACUGCACGAGAAGGCACAUGAA :: 38.9
5. CUCUAGUGAGGAUAUGGAAGAAAAGAAGAGAAAGAAAAGAACCAGAAGGCACAUGAGGAUCACCCAUGUAAGAA [EteRNA is fun!] :: 38.9
6. GCUGGCCAAGGAUAUACAUGAGGAUCACCCAUGUGAGAGAAAAAAGUGAGAAAGAAAAGUAGAAGGUGGGUAGG [salish99-ex3-111] :: 59
7. AAAAAGGUAGGAUAUACAUGAGGAUCACCCAUGUACAUAAAUGGAGAAAAAAACAGUUGUAGAAGGGCCAAAAA [Ex3 Malc#9] :: 41.7
8. GAAGAACAUGAGGAUCACCCAUGUCAGGAUAUGAAUAACGGAAUAAUACGUUAUGGAAUCAGAAGGGACAAGAA [Ex 1 May 52] :: 48.9
9. AAGAACAGAGGAUAUACUAAAGAAAUGAAAAGAAAGAAAGAACAUGAGGAUCACCCAUGUAGAAGGCUGAAGAA [Yakbim Sekhaenre] :: 25.9
10. AGUGAGUGAGGAUAUGCCUGAAGAAUAAAAGAAAUAACGAGGCAGAAGGCACAUGAGGAUCACCCAUGUACACA [May 65] :: 32.1
11. AACAGUACAGGAUAUACAUGAGGAUCACCCAUGUGAAAAUUAAGUGGGAAACCACAAGGUAGAAGGGUACUGGA [Mat - Exclusion 3 - Eli mod - D64] :: 27.1
12. AAGUACUCAGGAUAUACAUGAGGAUCACCCAUGUGAAAAAAGCGUAAAAAACGCACAUGUAGAAGGGAGUACAA [JL In thr Red Again] :: 122
13. AAAAAACAUGAGGAUCACCCAUGUGAGGAUAUCUGUAUUCAAUCCUCGGAUUGAAUACAGAGAAGGCACAUGAA [Ex1: 611] :: 34
14. GAAUGUCUAGGAUAUACAUGAGGAUCACCCAUGUGUAAAAAUAAAUACACAAAAGAAAGUAGAAGGAGACAAAG [Mat - Exclusion 3 - Mayanna mod - D122] :: 28.5
15. UCUUGACAUGAGGAUCACCCAUGUCAGGAUAUAGUAGGACAAAUAAAUAAAAGUUCUACUAGAAGGGAUAUGGA [Design 18: G-U+] :: 14.3
16. AGAAAGUCAGGAUAUACGAAAAAGAAAAAAGACGAGAACGGACAUGAGGAUCACCCAUGUAGAAGGGACAAGAA [Diamond 14] :: 66.4
17. CCUAUGUCAGGAUAUCAGUAGUAAAAAAAAAAAAUUACUACUGAGAAGGGACAUGAGGAUCACCCAUGUCCAAA [EX4 312: Super Stable 12] :: 25.6
18. AACUGACAUGAGGAUCACCCAUGUCAGGAUAUGCUUCAUAAAAAAAAAAAAAAAUGAUGCAGAAGGGAUAUGGA [Design 36 :P Sub-opt 12] :: 21.5
19. AACUAGUGAGGAUAUGCAAGAAAAAAAAAAAAAAUAAAGGGACAUGAGGAUCACCCAUGUAGAAGGCACUAACA [Diamond 68] :: 42.7
20. AACAGUACAGGAUAUACAUGAGGAUCACCCAUGUGAGAAUUAAGUGGAGAACCACAAAGUAGAAGGGUACUGAA [Mat - Exclusion 3 - JL mod - D8] :: 39.2
21. AAUAAGUGAGGAUAUGUAAAUAGUAGAUAAGAUUCCCUAAAACAGAAGGCACAUGAGGAUCACCCAUGUAAAUA [JR_Exc004_Sub007] :: 25.9
22. AAAAAACAUGAGGAUCACCCAUGUAAGGAUAUGCUGAAAAAACACUGGAAACAGUGCAGCAGAAGGUACAAAAA [66%, Wbt, 35] :: 21.5
23. AGAUGACAUGAGGAUCACCCAUGUAAGGAUAUACGAGUAGGAGAAUAAAAUGAUAGAAGUAGAAGGUACGUAGA ['Exclusion 1' Lab (2)] :: 68
24. AAAAAGGUAGGAUAUACAUGAGGAUCACCCAUGUCGCGGCGCGCGGACAGCCCGCCCUGUAGAAGGACCAAAAA [Default title] :: 35
25. AAAAAGAUAGGAUAUACGAACAUGUCAAAAGACGUGAAGGGACAUGAGGAUCACCCAUGUAGAAGGAUUAAAAA [JL Wide Open 39] :: 38.8
26. AAGAAGUGAGGAUAUAGUUGCACUAGCUAAUGCUAGUGCAACUAGAAGGCACAUGAGGAUCACCCAUGUAAAAG [Meechl Ex4 2] :: 40.6
